Reference source: PubChem BioAssay (NCI)

System: LOX IMVI melanoma
MEASUREMENT DESCRIPTION: NCI-60 one-dose screen, 48 h (100 = growth as untreated, 0 = no growth, -100 = all killed)
STUDY CONDITIONS: 10 µM unless noted
Compounds without any hit were thinned out: in the full panel of roughly 83,000, 20% have a hit.
Label 1 (yes) when growth is strictly below 90%; at or above that, label 0 (no).

In: Say whether its growth is strictly beneath 90%. Entry: `COc1ccccc1C(=O)Nc1cccc2c1C(=O)C(=O)C=C2`
Out: 1 (yes)

In: Say whether its growth is strictly beneath 90%. Entry: `COc1ccc2c(c1)c(CC(=O)[Se]CC#N)c(C)n2C(=O)c1ccc(Cl)cc1`
Out: 1 (yes)

In: Say whether its growth is strictly beneath 90%. Entry: `O=c1[nH]c(Sc2sc3ccc(Cl)cc3c2CBr)nc(=S)[nH]1`
Out: 1 (yes)

In: Say whether its growth is strictly beneath 90%. Entry: `O=C(Nc1ccc2c(ccn2Cc2ccccn2)c1)c1ccnnc1`
Out: 0 (no)

In: Say whether its growth is strictly beneath 90%. Entry: `C#CCn1cccc1CNc1ccc(OC)cc1`
Out: 1 (yes)

Others:
In: Say whether its growth is strictly beneath 90%. Entry: `Cc1nn(-c2ccccc2)c2ncnc(N/N=C/c3ccccc3)c12`
Out: 0 (no)

* * *

System: SF-295 CNS
MEASUREMENT DESCRIPTION: NCI-60 one-dose screen, 48 h (100 = growth as untreated, 0 = no growth, -100 = all killed)
STUDY CONDITIONS: 10 µM unless noted
The panel holds about 83,000 compounds, 20% with a hit somewhere; the sample as a whole holds those more often.
Reported growth values for a set of compounds
Write the answer as a number in %, unit excluded.

Per the record, `O=C1/C(=C/C=C/c2ccco2)SC(=S)N1C1CCCCC1` has growth of 97.6

Per the record, `COc1cc(Cn2cc3c(c2)-c2onc(CN4CCCC4)c2CC3)cc(OC)c1OC` has growth of 85.8

Per the record, `Cc1ccc(-c2nn(-c3ccccc3)cc2/C=C/C(=O)c2ccc(NC(=O)CCCCCCC(=O)NO)cc2)cc1` has growth of 88

Others:
Per the record, COc1ccc(/C=N/NC2=NC3C(S2)N(C)C(=O)N3C)cc1 (centres undefined) has growth of 10.6

Per the record, `O=C(CN1CCN(c2cc(=O)n(-c3ccccc3)c3ccccc23)CC1)Nc1nc(-c2ccc(Cl)cc2)cs1` has growth of 62.6

Per the record, `O=C(CCn1cc[n+](CC(=O)c2ccc(-c3ccccc3)cc2)c1)Nc1cccc2cccnc12` has growth of 100

* * *

Tested on: SF-539 CNS
MEASUREMENT DESCRIPTION: NCI-60 one-dose screen, 48 h (100 = growth as untreated, 0 = no growth, -100 = all killed)
STUDY CONDITIONS: 10 µM unless noted
Compounds without any hit were thinned out: in the full panel of roughly 83,000, 20% have a hit.
MEASURED ATTRIBUTE: growth (%)
Write the answer as a number in %, unit excluded.

Per the record, CC(=O)C1=C(C)NC(NNC(N)=S)=NC1c1ccccc1 (stereo unspecified) has growth of 96.7

Per the record, `O=C(O)c1ccc(-n2cc(CNc3cccc(Cl)c3)c(-c3ccc(F)cc3)n2)cc1` has growth of 96.1

Others:
Per the record, `CN(C)CCCOc1ccc2c(c1)CN(C(=O)c1cc(C(=O)N3Cc4cccc(F)c4C3)ccc1O)C2` has growth of 91

Per the record, `Cn1cc(CNc2nc3ccc(OC/C(=C/F)CN)cc3o2)ccc1=O` has growth of 97.1

Per the record, `Cc1ccc(CSc2nc(-c3ccc(Cl)cc3)c(C#N)c(N3CCOCC3)n2)cc1` has growth of 99.1

Per the record, `N=c1c2cc(-c3ccccc3)oc2ncn1/N=C/c1ccc(Br)cc1` has growth of 74.2

Per the record, `C#CCOc1ccc(/C=N\Nc2nc(-c3ccc(C)cc3)cs2)cc1OC` has growth of 96.4

Per the record, `Cc1cccc(/C=C/C(=O)Nc2ncc(Cc3cccc(C)c3)s2)c1` has growth of 4.05

Per the record, CCO/C=N/C1=C(C#N)C(c2ccc(F)cc2)c2sc3c(C)cccc3c2O1 (stereo unspecified) has growth of -10.1

Per the record, `CCOc1ccccc1NC1=C(Cl)C(=O)c2nc(C)ccc2C1=O` has growth of -37.3

Per the record, `Clc1ccc(N/N=c2/oc3ccccc3cc2-c2cc3ccccc3[nH]2)cc1` has growth of 87.3

Per the record, O=C1Nc2ccccc2/C1=C/c1ccc(COCC2CO2)n1-c1ccc(O)cc1 (stereo unspecified) has growth of 96.8
